test: folding stability dG unfold from trypsin proteolysis; higher = more stable
Measure: folding stability dG unfold (kcal/mol)
Answer with a number only, understood to be in kcal/mol.

>>> df
                             entry_sequence                      measure  assay_result
0  SAGGSAGGSAGPKPLATITLPYPDNASVTITVTPNGVLIDPDPNITNPEVEKAVADALTDSAGGSAGGSAGG [r11_372_TrMRF]  folding stability dG unfold          1.55
1  SASMTLTIPLPLKPGDRVVVEATHPLGYGFETEELPDGSVRLTLTVPTPDAPPATLHIRVYEPNTGKLASAG [r14_39_TrMRF]  folding stability dG unfold          2.28
2  SAGGSAMTLEEARELVERLVRELFPDAEVLDVDAVRLPDRLVLVDAVVRPKYRPDEVLRFRFLLGDSAGGSA [r15_627_TrMRF]  folding stability dG unfold          3.53
3  SAGGSEKKVLVLKFRHPENDKPLFSVRIVLEKPPEDSYKAKIELLDLPEDYVLSPEAIKAILEALKSAGGSA [r2_7_TrMRF]  folding stability dG unfold          2.05
4  SAGGSAGGSAGGMYVAVVTRPDGSRLVVETEPGEEIELFTEDGRPLGITAVAPVDEEAFSAGGSAGGSAGGS [r10_422_TrMRF]  folding stability dG unfold         0.444

Prompt line: Entry SAGGSAAGAERVTYNYMIPNDGKWFMIRITIYRFEVKRDPEDNKYKLDLPPGDQLFINTEIMWFPNSAGGSA [r15_1040_TrROS] has what folding stability dG unfold?
Response line: 2.72

Prompt line: Do the same for SAYIQIERDPDGYIKIEVWFDSPDEGKEFVKEFVKELADQGLDIKIKVTKIEPYPGDPNMYRVSYTIKVSAG [r14_119_TrROS] please
Response line: 2.76

###

test: folding stability dG unfold from trypsin proteolysis; higher = more stable
Measure: folding stability dG unfold (kcal/mol)
Answer with a number only, understood to be in kcal/mol.

>>> print(df.to_string())
                             entry_sequence  unit_spec  assay_result
0  SAIKIKNVEFNDNGWMEIEIPYPENGREVTIRMDPNGNIQVEEYPPNDGKPKRKTIPGMSIEEILEELLSAG [r14_760_TrROS]   kcal/mol          1.08
1  SAGGSAGGSAMSPTEAERARPVPVVKTETTVTLDPSGYRVETVTYDGGVTETVVTPLPPELASAGGSAGGSA [r18_192_JUSTAS]   kcal/mol        0.0994
2  SAGGKKYVLIKVKVRVEKEVNGEKKEVELELEILVPVDEETGKTPEEKAKELAKKLPPEVTEVKIEPVSAGG [r13_335_TrROS_Hall]   kcal/mol          1.63

Turning to the following sequence.
Prompt line: Entry SAGKLVLKPGETVEIGDMTIHFHPDGRVSATFPDGRSAAIRVTVDTDTDVVGFEFVEEHPDVGHTDAPGSAG [r5_33_TrMRF] has what folding stability dG unfold?
Response line: 1.74

###

assay: folding stability dG unfold from chymotrypsin proteolysis; higher = more stable
Assign class by folding stability dG unfold: not lower than 4 kcal/mol means Satisfied; lower than 4 kcal/mol means Not satisfied.

Examples with answers:
>>> print(df.to_string())
                             entry_sequence  assigned_class
0  SAGGSSMYKTTTTPLSTFPVRDENGNFLEETKFEKTTVTYPDGSTVTVLKIEVGGKTFTLEVTPTPSAGGSA [r2_158_JUSTAS]   Not satisfied
1  SAGGSAGGSAGGKPKLTLTLTLKRTVKNKNGKTTEKTLTLTLTFDSKEEAENALKELGFSAGGSAGGSAGGS [r10_1062_TrROS_Hall]   Not satisfied
2  SAGGEVRLRLEAELLPDGTLVLRGRVEVRVGDRVFEFEFELVLRLEPVPPPPAPARPLLIPERLLDASAGGS [r8_269_TrMRF]   Not satisfied
3  SDEGYKVEINPMIHRTDGKVTIMFMIQIKPGLDDLKIKIKLRLPDGKPMKVDYQRNPDNGFIMVSATMPPSA [r9_159_TrROS]       Satisfied
4  SAGKPGKTIKVTVPIPDSVKNAKIIVEYPNGKSKTITVPAGKNVTITFKVPGSSSVKVRVVLDDGSVIGSAG [r5_664_TrMRF]   Not satisfied

Attention now turns to another entry.
Prompt line: # bool: folding stability dG unfold of SAGGSAGGSMEVTVTPLPDGSLLVTVTVTTSSTPVPVELRFPPSASLEEIRAAAEARAAEVAASAGGSAGGS [r12_69_JUSTAS] >= 4 kcal/mol
Response line: Not satisfied

The values you see were collected from the supplement of paper PMC12764529.
